The measurements presented in this section are drawn from PubChem BioAssay (NCI).

# Lookup of reported log10 TGI keyed by entry
- Test system: PC-3 prostate
- assay-name: NCI tumour cell line growth inhibition, 48 h
assay-metric: log10 TGI (log10 of the value in µM)

O=C1Oc2ccccc2C(=O)/C1=C/N1C(=O)/C(=C/c2ccc3c(c2)OCO3)SC1=S: 1.49
NC1OC(COC(=O)c2ccccc2)C(O)C(OC(=O)c2ccccc2)C1OC(=O)c1ccccc1 (centres undefined): 1.76
CC1=C(C(=O)Nc2ccccc2C)C(c2ccc(C3C(C(=O)Nc4ccccc4C)=C(C)NC(C)=C3C(=O)Nc3ccccc3C)cc2)C(C(=O)Nc2ccccc2C)=C(C)N1: 1.21
CCN(CC)CCCC(C)Nc1cc(-c2ccc(C(F)(F)F)cc2)c(C#N)c2nc3ccccc3n12 (centres undefined): 0.63
CNC(=O)c1c(NC(=O)c2ccc(C(F)(F)F)cc2)sc2c1CCC(=O)C2: 0.13
